assay.explanation: CCTE_Shafer_MEA_acute_burst_duration_mean: CCTE's Neural Acute Assay for Mean Burst Duration, Shafer Lab (AID 2284014);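 also: hits are decreases in mean burst duration relative to DMSO controls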
Active and inactive are the calls of the source. The calls were made as follows: active = hit-call score of the fitted dose curve at least 0.9, where 1 is the maximum; inactive = score below 0.9.
Hello, when you answer, please use one of the following outcomes: active, inactive

Task item: // outcome(item) with item = `Clc1ccc(C(c2ccc(Cl)cc2)C(Cl)Cl)cc1`
Reply: inactive

Task item: // outcome(item) with item = `COC(=O)Nc1nc2ccccc2[nH]1`
Reply: inactive

Task item: // outcome(item) with item = C[N+](C)(C)CC1CO1 (stereo not given)
Reply: inactive

Task item: // outcome(item) with item = `N#CC(Br)Br`
Reply: inactive

Task item: // outcome(item) with item = `CC(C)COC(=O)c1ccccc1C(=O)OCC(C)C`
Reply: active

---

Read-out: Monokine induced gamma interferon (MIG), CXCL9 (gene 4283)
assay.explanation: BSK_3C_MIG: BioMAP Diversity Plus: 3C Assay for Monokine induced gamma interferon (MIG) Biomarker Activity (AID 2283021)
recorded.conditions: primary human endothelial cells (HUVEC); actives raise or lower the signal
Active and inactive are the calls of the source. How the source made its calls: active means hit-call score of the fitted dose curve at least 0.9, where 1 is the maximum; inactive means score below 0.9.
Hello, when you answer, please use one of the following outcomes: active, inactive

Task item: // outcome(item) with item = `CCN(CC)N=O`
Reply: inactive

Task item: // outcome(item) with item = `Nc1cc(Cl)cc(C(=O)O)c1Cl`
Reply: inactive

Task item: // outcome(item) with item = `c1ccc2c(c1)oc1ccccc12`
Reply: inactive

Task item: // outcome(item) with item = ClC1=C(Cl)C2(Cl)C3C(Cl)C=CC3C1(Cl)C2(Cl)Cl (stereo not drawn)
Reply: active

Task item: // outcome(item) with item = `CCC[CH2][Sn]([Cl])([CH2]CCC)[CH2]CCC`
Reply: active

Task item: // outcome(item) with item = `COc1cc(C=O)cc2c1[C@H](COC(N)=O)[C@]1(OC(C)=O)ON2C[C@H]2[C@@H]1N2C(C)=O`
Reply: active

Task item: // outcome(item) with item = `O=C1CCCO1`
Reply: inactive

Task item: // outcome(item) with item = `CCNS(=O)(=O)C(F)(F)C(F)(F)C(F)(F)C(F)(F)C(F)(F)C(F)(F)C(F)(F)C(F)(F)F`
Reply: inactive

---

assay.explanation: ATG_ERE_CIS: Attagene CIS-FACTORIAL HepG2 Assay for Estrogen Response Element (ERE) (AID 2282940)
recorded.conditions: HepG2 ERE cis-reporter, Attagene RNA transcript; actives raise or lower the signal
Active and inactive are the calls of the source. Rule for the calls: active = hit-call score of the fitted dose curve at least 0.9, where 1 is the maximum; inactive = score below 0.9.
Hello, when you answer, please use one of the following outcomes: active, inactive

Task item: // outcome(item) with item = `OCCOCCO`
Reply: inactive

Task item: // outcome(item) with item = `O=C(Oc1ccc(Br)cc1)N1CCN2CCC1CC2`
Reply: inactive

Task item: // outcome(item) with item = `CO[C@@H]1[C@H](OC(=O)NC(=O)CCl)CC[C@]2(CO2)[C@H]1[C@@]1(C)O[C@@H]1CC=C(C)C`
Reply: inactive

Task item: // outcome(item) with item = `CNC(=O)Oc1cccc2c1OC(C)(C)C2`
Reply: inactive

Task item: // outcome(item) with item = `CC(C)COC(=O)c1ccccc1C(=O)OCC(C)C`
Reply: active

Task item: // outcome(item) with item = `Nc1ccc(N=Nc2ccccc2)cc1`
Reply: active

Task item: // outcome(item) with item = `Clc1ccc(C(c2ccc(Cl)cc2)C(Cl)Cl)cc1`
Reply: active

Task item: // outcome(item) with item = `N#CC(Br)Br`
Reply: active

Task item: // outcome(item) with item = `CCC[CH2][Sn]([Cl])([CH2]CCC)[CH2]CCC`
Reply: inactive

Task item: // outcome(item) with item = `COc1cc(C=O)cc2c1[C@H](COC(N)=O)[C@]1(OC(C)=O)ON2C[C@H]2[C@@H]1N2C(C)=O`
Reply: active

Task item: // outcome(item) with item = `Cn1cc(-c2ccccc2)c(=O)c(-c2cccc(C(F)(F)F)c2)c1`
Reply: inactive

Task item: // outcome(item) with item = CCOc1cccc(C2(N3CCN(c4ccccc4)CC3)CCC(C)CC2)c1 (configuration not stated)
Reply: inactive

Every entry's value here was drawn from PubChem BioAssay (EPA / NIEHS).
